Recorded pIC50 by entry
Test system: HepG2 (hepatocellular carcinoma)
Assay: Cytotoxicity, MTT assay, HepG2
Type: cell-based, human
Settings: Homo sapiens, HepG2, HepG2 cell line; MTT; mean ± s.d. (n = 3); read-out: IC50, HepG2
Quick note: pIC50 values are minus log10 of concentrations in mol/L.

// known answers, use as guide
C=CC(=C)CC[C@]1(C)[C@H](C)C[C@H](OC)[C@@]23C(=C[C@H](OC(=O)CC(C)C)C[C@@H]12)[C@@H](OC)O[C@H]3OC(C)=O :: 4.89
C=CC(C)=CCC1(C)C(C)C(OC(=O)C=Cc2ccc(O)cc2)C(O)C23C(=CC(OC(=O)CC(C)C)CC12)C(OC(C)=O)OC3OC(C)=O (centres unmarked) :: 5.15

Asked: # lookup: pIC50 of COc1cccc2c1C(=O)c1c(O)c3c(c(O)c1C2=O)C[C@@](O)(C(=O)CO)C[C@@H]3O[C@H]1C[C@H](N)[C@H](O)[C@H](C)O1 [Doxorubicin, reference compound]
Given back: 6.28

Asked: State the recorded pIC50 for this entry: "C=CC(=C)CC[C@]1(C)[C@H](C)C[C@H](OC)[C@@]23C(=C[C@H](OC(=O)C(C)C)C[C@@H]12)[C@@H](OC(C)=O)O[C@H]3OC(C)=O"
Given back: 4.93

Asked: Consider the compound shown here: "C=CC(=C)CC[C@]1(C)[C@H]2C[C@H](OC(=O)CC(C)C)C=C3[C@H](OC(C)=O)O[C@H](OC(C)=O)[C@@]32[C@H](OC)C[C@@H]1C" What is its recorded pIC50?
Given back: 5.02

Asked: Requested field: pIC50. Item: "C=CC(=C)CC[C@]1(C)[C@H](C)[C@@H](OC(=O)/C=C/c2ccc(O)cc2)[C@H](O)[C@@]23C(=C[C@H](OC(=O)CC(C)C)C[C@@H]12)[C@H](OC(C)=O)O[C@H]3OC(C)=O"
Given back: 5.14

Asked: Could you tell me which pIC50 is on file for "C=CC(=C)CC[C@]1(C)[C@H](C)C[C@H](O)[C@@]23C(=C[C@H](OC(=O)CC(C)C)C[C@@H]12)[C@@H](OC(C)=O)O[C@H]3OC(C)=O" ?
Given back: 5.62

Asked: Would you mind telling me what pIC50 value was observed for "C=CC(=C)CC[C@]1(C)[C@H](C)C[C@H](OC)[C@@]23C(=C[C@H](OC(=O)[C@@H](C)CC)C[C@@H]12)[C@@H](OC)O[C@H]3OC(C)=O" ?
Given back: 4.84

Asked: What value of pIC50 has been reported for the following compound? C=CC(=C)CCC1(C)C(C)C(OC(=O)C=Cc2ccc(O)cc2)C(O)C23C(=CC(OC(=O)CC(C)C)CC12)C(OC)OC3OC(C)=O (centres unmarked)
Given back: 4.35

Asked: Item COc1cc([C@@H]2c3cc4c(cc3[C@@H](O[C@@H]3O[C@@H]5CO[C@@H](C)O[C@H]5[C@H](O)[C@H]3O)[C@H]3COC(=O)[C@H]23)OCO4)cc(OC)c1O [Etoposide, reference compound] has what recorded pIC50?
Given back: 4.47

Asked: // returns reported pIC50 for input C=CC(C)=CCC1(C)C(C)C(OC(C)=O)C(OC(C)=O)C23C(=CC(OC(=O)CC(C)C)CC12)C(OC(C)=O)OC3OC(C)=O (centres unmarked)
Given back: 4.41
